target: human TREK-1 (Homo sapiens); construct: expressed in transfected cells; experiment: TREK-1 Thallium (Tl+) flux assay, Method 1; type: cell-based; details: TREK-1 Thallium (Tl+) flux assay; no *^12 (Method 2) mark on these rows
Sequence (O95069 whole entry): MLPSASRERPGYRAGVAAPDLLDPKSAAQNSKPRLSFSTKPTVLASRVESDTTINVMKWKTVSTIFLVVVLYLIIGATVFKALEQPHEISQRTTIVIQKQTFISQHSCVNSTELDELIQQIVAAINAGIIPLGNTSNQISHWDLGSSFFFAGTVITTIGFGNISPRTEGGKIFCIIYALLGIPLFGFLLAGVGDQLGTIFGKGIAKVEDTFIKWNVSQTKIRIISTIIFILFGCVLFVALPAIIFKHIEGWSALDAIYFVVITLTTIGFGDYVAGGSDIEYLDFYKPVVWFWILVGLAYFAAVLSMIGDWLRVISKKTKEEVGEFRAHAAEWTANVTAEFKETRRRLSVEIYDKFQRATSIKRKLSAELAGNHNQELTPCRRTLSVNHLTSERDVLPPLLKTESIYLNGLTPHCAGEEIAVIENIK
Items are presented alongside their recorded pIC50.
Note on pIC50: it is the negative log10 of concentration, concentration in mol/L.

Sample records with pIC50:
Cc1cc(C#Cc2ccccc2)cnc1NC(=O)c1c(Cl)cnn1C[C@H]1COCCO1 [Compound 211]    6.49
Cc1cc(C#Cc2ccccc2)cnc1NC(=O)c1c(Cl)cnn1C1CCN(C(=O)OC(C)(C)C)C[C@H]1F (stereo in doubt) [Compound 336]    6.15
Cc1cc(C#Cc2ccc(F)cc2)cnc1NC(=O)c1c(Cl)cnn1CC1CCCN(C(=O)C(C)C)C1 (stereo not drawn) [Compound 272]    6.34
CC(C)(C)OC(=O)N[C@@H]1CC[C@@H](n2ncc(Cl)c2C(=O)Nc2ncc(C#Cc3ccccc3)cc2F)C1 [Compound 221]    6.47
CC(C)(C)OC(=O)N1CCOC(Cn2ncc(Cl)c2C(=O)Nc2ncc(C#Cc3ccccc3)cc2F)C1 (stereo not drawn) [Compound 300]    6.27
O=C(Nc1ncc(C#Cc2cccs2)cc1F)c1c(Cl)cnn1CCC1CCN(C(=O)C2CC2)CC1 [Compound 250]    6.40
Cc1cc(C#Cc2cccc(F)c2)cnc1NC(=O)c1c(Cl)cnn1[C@H]1C[C@@H]2CN(C(=O)C(C)C)C[C@@H]2C1 [Compound 349]    6.09
COc1ncc(-c2cnc(NC(=O)c3c(Cl)cnn3C3CCN(C(=O)OC(C)(C)C)CC3)c(C)c2)cc1F [Compound 383]    6.17

Hello, I am looking for reported pIC50 with human TREK-1 (Homo sapiens) for CC(=O)N1CC2CC(C1)C2Cn1ncc(Cl)c1C(=O)Nc1ncc(C#Cc2ccccc2)cc1F (stereo not drawn) [Compound 326] . Could you help?
6.19

Source: patent US20240182445A1
